B1: WDFY2 (parent)
chain: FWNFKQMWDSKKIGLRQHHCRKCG

Variants of: B1
method_description: protein stability index of a GFP-peptide fusion (GPS, HEK-293T) (PSI 1-6); higher = more stable;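 note: lentivirally expressed fusions sorted by FACS into six bins by GFP to DsRed ratio, PSI derived from sequencing read proportions per bin multiplied by bin number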
condition_description: c terminus: a fixed tail appended
Answer f if protein stability index is under 2, and t if it is 2 or more.

Examples with answers:
>  <residue_string>
FWNFKQMWDVKKIGLRQHHCRKCG [S10V]

>  <assigned_label>
f

$$$$
>  <residue_string>
FWNFKQWWDSKKIGLRQHHCRKCG [M7W]

>  <assigned_label>
f

$$$$
>  <residue_string>
FGNFKQMWDSKKIGLRQHHCRKCG [W2G]

>  <assigned_label>
f

$$$$
>  <residue_string>
FWNFKQMWDSRKIGLRQHHCRKCG [K11R]

>  <assigned_label>
f

$$$$
>  <residue_string>
FWNFKQMWDSKKISLRQHHCRKCG [G14S]

>  <assigned_label>
t

$$$$

Q: Is reported protein stability index greater than or equal to 2 here: FWWFKQMWDSKKIGLRQHHCRKCG [N3W]
Ans: f

Q: Check the entry FWNVKQMWDSKKIGLRQHHCRKCG [F4V] : does protein stability index equal or exceed 2?
Ans: t

Hello, the source for this data is the supplement of paper PMC10567573, in case you need it.
